Source: ChEMBL document CHEMBL4825755

Molecular target: Phosphatidylinositol 4,5-bisphosphate 3-kinase catalytic subunit gamma isoform (Homo sapiens, UniProt P48736)
Sequence (P48736 whole entry, canonical isoform): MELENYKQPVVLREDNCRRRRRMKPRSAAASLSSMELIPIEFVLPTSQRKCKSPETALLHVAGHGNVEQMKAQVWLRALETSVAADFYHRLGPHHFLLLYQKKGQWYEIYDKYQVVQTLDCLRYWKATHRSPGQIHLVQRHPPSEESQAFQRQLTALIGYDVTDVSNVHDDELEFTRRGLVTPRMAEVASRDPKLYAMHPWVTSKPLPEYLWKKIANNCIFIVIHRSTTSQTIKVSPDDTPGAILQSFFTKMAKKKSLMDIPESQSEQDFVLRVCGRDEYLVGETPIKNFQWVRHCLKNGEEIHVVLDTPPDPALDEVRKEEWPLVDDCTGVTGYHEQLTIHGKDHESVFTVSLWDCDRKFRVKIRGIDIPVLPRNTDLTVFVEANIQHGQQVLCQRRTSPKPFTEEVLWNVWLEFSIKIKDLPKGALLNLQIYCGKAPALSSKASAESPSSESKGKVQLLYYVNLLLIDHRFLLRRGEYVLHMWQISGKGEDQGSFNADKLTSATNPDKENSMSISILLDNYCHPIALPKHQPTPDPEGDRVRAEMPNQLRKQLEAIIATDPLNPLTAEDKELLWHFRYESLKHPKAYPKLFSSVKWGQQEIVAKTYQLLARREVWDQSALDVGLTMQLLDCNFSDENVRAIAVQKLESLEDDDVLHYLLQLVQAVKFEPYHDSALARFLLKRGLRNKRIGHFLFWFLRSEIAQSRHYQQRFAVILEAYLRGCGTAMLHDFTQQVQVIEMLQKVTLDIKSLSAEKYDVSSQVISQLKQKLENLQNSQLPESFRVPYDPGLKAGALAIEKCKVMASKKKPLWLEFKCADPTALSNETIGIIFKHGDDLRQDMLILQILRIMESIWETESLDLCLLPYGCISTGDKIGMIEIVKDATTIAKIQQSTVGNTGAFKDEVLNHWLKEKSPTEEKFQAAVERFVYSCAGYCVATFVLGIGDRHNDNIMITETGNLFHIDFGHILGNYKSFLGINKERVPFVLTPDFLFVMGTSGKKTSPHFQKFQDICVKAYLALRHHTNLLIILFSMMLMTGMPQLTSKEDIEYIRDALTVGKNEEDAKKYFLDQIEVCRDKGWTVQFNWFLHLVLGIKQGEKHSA
Experiment: Inhibition of recombinant human N-terminal His6-tagged full length P120gamma expressed in baculovirus infected Sf21 insect cells using PIP2 as substrate preincubated for 15 mins followed by substrate addition and measured after 60 mins by HTRF assay
Friendly reminder: IC50 below 8 µM is MET, at or above is NOT MET.

# Mol smiles, Label class
measured = [
    ("COc1ncc(C2=CCOCC2)cc1S(=O)(=O)Nc1cncc(-c2ccc(CN3CCCCC3)s2)c1", "MET"),
    ("COc1ncc(N2CCOCC2)cc1S(=O)(=O)Nc1ccnc(-c2ccc(CN3CCC(C(C)(C)O)CC3)cc2F)c1", "MET"),
    ("COc1ncc(C2=CCOCC2)cc1S(=O)(=O)Nc1cncc(-c2ccc(CN3CCCC3)cc2)c1", "NOT MET"),
    ("COc1ncc(C2=CCOCC2)cc1S(=O)(=O)Nc1cncc(-c2ccc(CN(C)C)cc2)c1", "NOT MET"),
    ("COc1ncc(C2=CCOCC2)cc1S(=O)(=O)Nc1cncc(-c2ccc(CN3CCN(C(C)C)CC3)nc2)c1", "MET"),
]

###

Below: a set of entries, each annotated with reported IC50.
Target: PI3-kinase p110-alpha/p85-alpha (Homo sapiens)
Sequence (P27986 whole entry): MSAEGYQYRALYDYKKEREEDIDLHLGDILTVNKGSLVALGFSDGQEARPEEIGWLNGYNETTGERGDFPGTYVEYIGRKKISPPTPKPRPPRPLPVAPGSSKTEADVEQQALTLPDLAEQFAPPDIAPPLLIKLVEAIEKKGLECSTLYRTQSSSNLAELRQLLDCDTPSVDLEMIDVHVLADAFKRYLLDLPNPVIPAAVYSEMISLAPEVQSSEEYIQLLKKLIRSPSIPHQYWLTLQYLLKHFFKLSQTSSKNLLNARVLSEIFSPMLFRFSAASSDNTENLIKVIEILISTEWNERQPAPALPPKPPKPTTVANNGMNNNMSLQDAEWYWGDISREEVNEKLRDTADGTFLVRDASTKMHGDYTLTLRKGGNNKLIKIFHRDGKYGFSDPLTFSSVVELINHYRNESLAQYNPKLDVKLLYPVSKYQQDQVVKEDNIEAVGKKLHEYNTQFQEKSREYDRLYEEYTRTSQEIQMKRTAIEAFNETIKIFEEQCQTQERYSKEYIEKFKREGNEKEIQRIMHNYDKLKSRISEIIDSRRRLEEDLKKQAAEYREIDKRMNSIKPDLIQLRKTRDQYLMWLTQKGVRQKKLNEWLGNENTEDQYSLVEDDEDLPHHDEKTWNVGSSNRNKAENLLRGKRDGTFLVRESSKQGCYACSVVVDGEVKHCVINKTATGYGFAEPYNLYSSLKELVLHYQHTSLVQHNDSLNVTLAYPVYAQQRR
Sequence (P42336 whole entry): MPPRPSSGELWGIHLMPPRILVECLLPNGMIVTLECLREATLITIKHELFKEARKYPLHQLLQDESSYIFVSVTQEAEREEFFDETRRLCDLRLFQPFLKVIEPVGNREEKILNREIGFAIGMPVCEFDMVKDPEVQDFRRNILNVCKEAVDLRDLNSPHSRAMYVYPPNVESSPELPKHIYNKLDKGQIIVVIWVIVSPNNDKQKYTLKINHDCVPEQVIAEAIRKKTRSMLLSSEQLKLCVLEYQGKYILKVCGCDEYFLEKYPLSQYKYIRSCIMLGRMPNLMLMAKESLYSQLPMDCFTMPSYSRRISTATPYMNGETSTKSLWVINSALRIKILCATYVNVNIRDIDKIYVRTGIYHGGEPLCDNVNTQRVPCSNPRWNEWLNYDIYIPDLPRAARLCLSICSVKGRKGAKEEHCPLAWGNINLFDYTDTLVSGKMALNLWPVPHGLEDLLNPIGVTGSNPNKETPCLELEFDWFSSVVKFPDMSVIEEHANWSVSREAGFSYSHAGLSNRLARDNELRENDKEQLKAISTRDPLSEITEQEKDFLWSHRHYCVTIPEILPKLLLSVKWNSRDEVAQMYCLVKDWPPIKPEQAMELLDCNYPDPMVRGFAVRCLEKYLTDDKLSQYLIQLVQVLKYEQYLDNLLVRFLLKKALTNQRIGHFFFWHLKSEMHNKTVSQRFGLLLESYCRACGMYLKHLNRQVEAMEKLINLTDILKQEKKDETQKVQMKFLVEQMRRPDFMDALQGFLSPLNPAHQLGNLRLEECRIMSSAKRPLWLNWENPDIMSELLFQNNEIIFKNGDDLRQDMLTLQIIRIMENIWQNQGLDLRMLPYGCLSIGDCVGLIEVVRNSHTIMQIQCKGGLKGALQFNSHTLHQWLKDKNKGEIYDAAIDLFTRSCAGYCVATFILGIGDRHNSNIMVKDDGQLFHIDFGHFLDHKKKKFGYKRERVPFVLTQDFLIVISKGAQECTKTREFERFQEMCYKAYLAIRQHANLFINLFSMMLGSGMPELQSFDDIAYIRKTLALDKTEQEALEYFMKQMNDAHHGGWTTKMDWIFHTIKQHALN
Assay: Inhibition of recombinant human N-terminal His6-tagged full length P110alpha/full length untagged human p85alpha expressed in baculovirus infected Sf21 insect cells using PIP2 as substrate preincubated for 15 mins followed by substrate addition and measured after 60 mins by HTRF assay
Observed property: IC50 (µM)

# Mol smiles, Reported value
rows = [
    ("COc1ncc(C2=CCOCC2)cc1S(=O)(=O)Nc1ccnc(C)c1", 3.98),
    ("COc1ncc(C2=CCOCC2)cc1S(=O)(=O)Nc1ccccc1", 3.98),
    ("COc1ncc(N2CCOCC2)cc1S(=O)(=O)Nc1ccnc(-c2ccc(CN3CCN(C(C)C)CC3)c(F)c2)c1", 1.58),
    ("COc1ncc(N2CCOCC2)cc1S(=O)(=O)Nc1cncc(-c2ccc(CN3CCCC3)c(F)c2)c1", 3.98),
    ("COc1ncc(N2CCOCC2)cc1S(=O)(=O)Nc1ccnc(-c2ccc(CN3CCN(C(C)(C)C)CC3)cc2F)c1", 0.794),
    ("COc1ncc(C2=CCOCC2)cc1S(=O)(=O)Nc1cncc(-c2ccc(CN3CCN(C(C)C)CC3)nc2)c1", 1.26),
    ("COc1ncc(N2CCOCC2)cc1S(=O)(=O)Nc1cncc(-c2ccc(CN3CCCC3)cc2)c1", 5.01),
    ("COc1ncc(N2CCOCC2)cc1S(=O)(=O)Nc1cncc(-c2ccc(CN3CCCC3)cc2F)c1", 1),
    ("COc1ncc(C2=CCOCC2)cc1S(=O)(=O)Nc1cncc(C)c1", 3.16),
]

###

Below: a set of entries, each annotated with reported CLint scaled at 0.75 h, 0.5 µM.
Assay: in vitro
Settings: human, pooled liver microsomes
Description: Intrinsic clearance in pooled human liver microsomes at 0.5 uM measured up to 45 mins in presence of NADPH by LC-MS/MS analysis

# Mol smiles, CLint scaled at 0.75 h, 0.5 µM
rows = [
    ("COc1ncc(C2=CCOCC2)cc1S(=O)(=O)Nc1cncc(C#CCN2CCN(C(C)C)CC2)c1", "< 0.4 mL/min/kg"),
    ("COc1ncc(N2CCOCC2)cc1S(=O)(=O)Nc1ccnc(-c2ccc(CN3CCN(C(C)(C)C)CC3)cc2)c1", "< 0.4 mL/min/kg"),
    ("COc1ncc(N2CCOCC2)cc1S(=O)(=O)Nc1cncc(-c2ccc(CN3CCCC3)cc2F)c1", "< 0.4 mL/min/kg"),
    ("COc1ncc(N2CCOCC2)cc1S(=O)(=O)Nc1cncc(-c2ccc(CN3CCCC3)c(F)c2)c1", "< 0.4 mL/min/kg"),
    ("COc1ncc(N2CCOCC2)cc1S(=O)(=O)Nc1ccnc(-c2ccc(CN3CCC(C(C)(C)O)CC3)cc2F)c1", "< 0.4 mL/min/kg"),
    ("COc1ncc(N2CCOCC2)cc1S(=O)(=O)Nc1ccnc(-c2ccc(CN3CCN(C(C)C)CC3)cc2)c1", "< 0.4 mL/min/kg"),
    ("COc1ncc(N2CCOCC2)cc1S(=O)(=O)Nc1ccnc(-c2ccc(CN3CCN(C(C)C)CC3)cc2F)c1", "< 0.4 mL/min/kg"),
    ("COc1ncc(N2CCOCC2)cc1S(=O)(=O)Nc1cncc(C#CCN2CCN(C(C)C)CC2)c1", "< 0.4 mL/min/kg"),
    ("COc1ncc(N2CCOCC2)cc1S(=O)(=O)Nc1cncc(-c2ccc(CN3CCCC3)cc2)c1", "< 0.4 mL/min/kg"),
    ("COc1ncc(C2=CCOCC2)cc1S(=O)(=O)Nc1cncc(-c2ccc(CN3CCCC3)cc2)c1", "0.72 mL/min/kg"),
    ("COc1ncc(N2CCOCC2)cc1S(=O)(=O)Nc1ccnc(-c2ccc(CN3CCN(C(C)C)CC3)c(F)c2)c1", "< 0.4 mL/min/kg"),
    ("COc1ncc(C2=CCOCC2)cc1S(=O)(=O)Nc1cncc(-c2ccc(CN(C)C)cc2)c1", "< 0.4 mL/min/kg"),
    ("COc1ncc(N2CCOCC2)cc1S(=O)(=O)Nc1ccnc(-c2ccc(CN3C[C@@H](C)O[C@@H](C)C3)cc2F)c1", "0.87 mL/min/kg"),
    ("COc1ncc(C2=CCOCC2)cc1S(=O)(=O)Nc1cncc(-c2ccc(CN3CCN(C(C)C)CC3)nc2)c1", "0.43 mL/min/kg"),
    ("COc1ncc(C2=CCOCC2)cc1S(=O)(=O)Nc1cncc(-c2ccc(CN3C[C@@H](C)O[C@@H](C)C3)cc2)c1", "12.9 mL/min/kg"),
    ("COc1ncc(N2CCOCC2)cc1S(=O)(=O)Nc1cncc(-c2ccc(CN3CCN(C(C)C)CC3)cc2)c1", "0.71 mL/min/kg"),
    ("COc1ncc(N2CCOCC2)cc1S(=O)(=O)Nc1ccnc(-c2ccc(CN3CCN(C(C)(C)C)CC3)cc2F)c1", "< 0.31 mL/min/kg"),
    ("COc1ncc(N2CCOCC2)cc1S(=O)(=O)Nc1ccnc(-c2ccc(CN3CCN(C(C)C)CC3)c(F)c2F)c1", "0.47 mL/min/kg"),
    ("COc1ncc(C2=CCOCC2)cc1S(=O)(=O)Nc1cncc(-c2ccc(CN3CCNCC3)cc2)c1", "2.21 mL/min/kg"),
]

###

Target: Phosphatidylinositol 4,5-bisphosphate 3-kinase catalytic subunit delta isoform (Homo sapiens)
Sequence (O00329 whole entry, canonical isoform): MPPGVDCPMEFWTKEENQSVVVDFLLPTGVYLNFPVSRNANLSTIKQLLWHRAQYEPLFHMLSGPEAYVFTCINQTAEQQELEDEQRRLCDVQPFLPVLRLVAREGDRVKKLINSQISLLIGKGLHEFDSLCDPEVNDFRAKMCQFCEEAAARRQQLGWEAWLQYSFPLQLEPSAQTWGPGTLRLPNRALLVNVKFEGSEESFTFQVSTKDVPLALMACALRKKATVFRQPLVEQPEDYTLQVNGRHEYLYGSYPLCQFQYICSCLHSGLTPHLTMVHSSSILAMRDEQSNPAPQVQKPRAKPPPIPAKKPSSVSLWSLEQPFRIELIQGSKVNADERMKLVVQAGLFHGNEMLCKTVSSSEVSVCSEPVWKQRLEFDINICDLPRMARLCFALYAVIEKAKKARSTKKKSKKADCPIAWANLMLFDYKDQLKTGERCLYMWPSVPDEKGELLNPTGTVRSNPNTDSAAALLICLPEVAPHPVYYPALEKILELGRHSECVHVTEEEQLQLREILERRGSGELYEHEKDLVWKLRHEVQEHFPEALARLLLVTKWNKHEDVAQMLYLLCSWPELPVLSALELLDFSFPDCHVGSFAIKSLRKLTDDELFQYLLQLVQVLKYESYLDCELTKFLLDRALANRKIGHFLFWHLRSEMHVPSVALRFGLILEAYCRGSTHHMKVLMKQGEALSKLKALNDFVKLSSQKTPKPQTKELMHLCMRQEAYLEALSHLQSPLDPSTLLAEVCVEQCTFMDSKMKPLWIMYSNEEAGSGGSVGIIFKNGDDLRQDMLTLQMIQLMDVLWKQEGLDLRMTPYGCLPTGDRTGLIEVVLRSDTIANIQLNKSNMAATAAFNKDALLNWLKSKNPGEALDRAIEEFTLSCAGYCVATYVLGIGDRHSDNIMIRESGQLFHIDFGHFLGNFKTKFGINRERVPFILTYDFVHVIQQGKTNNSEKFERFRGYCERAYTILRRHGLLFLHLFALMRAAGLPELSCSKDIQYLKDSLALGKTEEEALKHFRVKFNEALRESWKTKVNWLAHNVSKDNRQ
Experiment: Inhibition of PI3Kdelta in human whole blood assessed as reduction in cytostim-stimulated IFNgamma production preincubated for 1 hr followed by cytostim stimulation and measured after 20 hrs by electrochemiluminescence assay
pIC50: −log10 of the molar value.
Below: a set of entries, each annotated with reported pIC50.
Observed property: pIC50

# Mol smiles, Reported value
measured = [
    ("COc1ncc(C2=CCOCC2)cc1S(=O)(=O)Nc1cncc(-c2cccc(CN3CCCCC3)c2)c1", 7.10),
    ("COc1ncc(N2CCOCC2)cc1S(=O)(=O)Nc1cncc(-c2ccc(CN3CCN(C(C)C)CC3)cc2F)c1", 8.50),
    ("COc1ncc(C2=CCOCC2)cc1S(=O)(=O)Nc1cncc(-c2ccc(CN3CCCCC3)s2)c1", 7.50),
    ("COc1ncc(C2=CCOCC2)cc1S(=O)(=O)Nc1cncc(-c2ccc(CN3C[C@@H](C)O[C@@H](C)C3)cc2)c1", 7.60),
    ("COc1ncc(N2CCOCC2)cc1S(=O)(=O)Nc1ccnc(-c2ccc(CN3CCN(C(C)C)CC3)c(F)c2F)c1", 8.50),
    ("COc1ncc(C2=CCOCC2)cc1S(=O)(=O)Nc1cncc(-c2cccc(CN3CCCC3)c2)c1", 6.70),
    ("COc1ncc(N2CCOCC2)cc1S(=O)(=O)Nc1ccnc(-c2ccc(CN3CCN(C(C)C)CC3)cc2)c1", 7.90),
    ("COc1ncc(N2CCOCC2)cc1S(=O)(=O)Nc1ccnc(-c2ccc(CN3C[C@@H](C)O[C@@H](C)C3)cc2F)c1", 8.10),
    ("COc1ncc(N2CCOCC2)cc1S(=O)(=O)Nc1cncc(C#CCN2CCN(C(C)C)CC2)c1", 6.80),
    ("COc1ncc(N2CCOCC2)cc1S(=O)(=O)Nc1cncc(-c2ccc(CN3CCCC3)c(F)c2)c1", 7.20),
    ("COc1ncc(N2CCOCC2)cc1S(=O)(=O)Nc1cncc(-c2ccc(CN3CCCC3)cc2)c1", 7.10),
]

###

Biological target: PI3-kinase p110-delta/p85-alpha (Homo sapiens, UniProt O00329)
Sequence (O00329 whole entry, one chain of several): as the sequence (O00329 whole entry, canonical isoform) above
Test: Inhibition of recombinant human N-terminal His6-tagged full length P110delta/full length untagged human p85alpha expressed in baculovirus infected Sf21 insect cells using PIP2 as substrate preincubated for 15 mins followed by substrate addition and measured after 60 mins by HTRF assay
Below: a set of entries, each annotated with reported IC50.

# Mol smiles, Unit of measure, IC50
records = [
    ("COc1ncc(N2CCOCC2)cc1S(=O)(=O)Nc1cncc(-c2ccc(CN3CCN(C(C)C)CC3)cc2F)c1", "nM", 1.26),
    ("COc1ncc(N2CCOCC2)cc1S(=O)(=O)Nc1ccnc(-c2ccc(CN3CCN(C(C)(C)C)CC3)cc2)c1", "nM", 0.794),
    ("COc1ncc(N2CCOCC2)cc1S(=O)(=O)Nc1ccnc(-c2ccc(CN3CCN(C(C)(C)C)CC3)cc2F)c1", "nM", 0.794),
    ("COc1ncc(N2CCOCC2)cc1S(=O)(=O)Nc1ccnc(-c2ccc(CN3C[C@@H](C)O[C@@H](C)C3)cc2F)c1", "nM", 1),
]
